- Experiment: PSAC antagonists in infected red cells, primary screen, cell-based, P. falciparum Indochina, OD700, 1 h (AID 1154)
- Condition Info: P. falciparum Indochina infected RBC osmotic lysis, higher = more signal, called active from +8 up or from −8 down
Readout Name: z-score
One number for each entry.

Some solved cases for reference:
COc1ccc(C#Cc2ccc3c(c2)[C@]2(C(=O)N3)[C@H](C(=O)Nc3nc4ccccc4s3)[C@H]3C(=O)O[C@H](c4ccccc4)[C@H](c4ccccc4)N3[C@@H]2c2ccccc2OCCO)cc1; 2.32
COCCOC(=O)N1C(=O)[C@@]2(c3cc(C#CCCO)ccc31)[C@H](c1ccccc1OCCO)N1[C@H](c3ccccc3)[C@H](c3ccccc3)OC(=O)[C@H]1[C@@H]2C(=O)N1CCCCCCC1; 2.44

# compound `CCOC(=O)C[C@H]1[C@H](OC(=O)c2ccccc2-c2ccccc2)[C@@H](NC(=O)c2ccc3ccccc3n2)c2cc(OCCCO)ccc2N1C(=O)c1ccccc1` ; its z-score = 1.35

====

- Experiment: cell viability in Huh7 cells, primary screen, cytotoxicity control for HCV replication inhibitor project, CellTiter-Glo luminescence, basal, 48 h (AID 1143);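 further: Huh7 hepatoma cells carrying a hepatitis C replication reporter with no stimulus; test concentration not given here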
- Condition Info: Huh7 HCV replicon, higher = more signal, called active from +8 up or from −8 down
Please go through the items and note down their z-score.
Numbers only.

Give measured z-score for every item shown.
1. C=C(CCCC)C(=O)CC[C@H](OC(=O)c1ccccc1-c1ccccc1C(=O)O)c1ccccc1OCCO
2. [N-]=[N+]=NCc1ccccc1[C@@H]1OC(c2ccc(OCCCO)cc2)=N[C@]1(Cc1ccccc1N=[N+]=[N-])C(=O)N1CCCCC1
3. C=C(/C(=C/C[C@@H](OC(C)=O)c1ccc(OCCO)cc1)c1cc(C(=O)OC)ccc1OC)C(C)C
4. COc1cc(NN2C(C(O)c3cc(OC)c(OC)c(OC)c3)C=CC3C(=O)N(c4ccccc4)C(=O)C32)cc(OC)c1OC (centres undefined)

Out:
-0.397
-1.91
-2.02
-2.99

====

- Experiment: small-molecule microarray binders of probe aDKK1, primary screen, biochemical, biotinylated probe, 635/667 nm fluorescence (AID 1099);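 further: score merges 667nm spot fluorescence with signal to noise across triplicate slides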
- Condition Info: higher = more signal
Please mark YES if the recorded composite z-score is equal to or greater than -0.06, and NO if it falls below.

CC(=O)NCCCC[C@@H]1NC(=O)[C@H]2C[C@@H](C(=O)NCCCCCNC(=O)CS)[C@@H](c3cccc(OCCO)c3)N2C1=O; NO

In: Answer whether composite z-score of `O=C1c2ccccc2[C@](Cc2ccccc2I)(C(=O)NC2CC2)[C@H](c2ccc(CO)cc2)N1Cc1ccccc1C(F)(F)F` is greater than or equal to -0.06.
Out: NO

In: Answer whether composite z-score of `C=C(/C(=C/C[C@@H](OC(C)=O)c1ccc(CO)o1)c1cc(C(=O)OC)ccc1OC)C(C)C` is greater than or equal to -0.06.
Out: NO

In: Answer whether composite z-score of `COCCOC(=O)N1C(=O)[C@@]2(c3cc(C#CCC(C(=O)OC)C(=O)OC)ccc31)[C@H](c1ccc(O)cc1)N1[C@H](c3ccccc3)[C@H](c3ccccc3)OC(=O)[C@H]1[C@@H]2C(=O)NC[C@H](O)c1ccccc1` is greater than or equal to -0.06.
Out: YES

In: Answer whether composite z-score of `COCC(=C=CC[C@H](O)c1cccc(OCCO)c1)C[C@H](O)COCc1ccccc1` is greater than or equal to -0.06.
Out: YES

In: Answer whether composite z-score of `Cc1c(NC(=O)/C(C#N)=C/c2ccccc2Cl)c(=O)n(-c2ccccc2)n1C` is greater than or equal to -0.06.
Out: NO

In: Answer whether composite z-score of `COCCOC(=O)N1C(=O)[C@@]2(c3cc(C#Cc4ccc(OC)cc4)ccc31)[C@H](C(=O)NC[C@H](O)c1ccccc1)[C@H]1C(=O)O[C@H](c3ccccc3)[C@H](c3ccccc3)N1[C@@H]2c1ccc(OCCO)cc1` is greater than or equal to -0.06.
Out: YES

In: Answer whether composite z-score of CCOC(=O)C1=CCC(c2ccccc2)N(S(=O)(=O)c2ccc([N+](=O)[O-])cc2)C1 (stereo not given) is greater than or equal to -0.06.
Out: YES

In: Answer whether composite z-score of `O=C(N1CCOCC1)[C@@]1(CCS(=O)(=O)c2ccccc2)N=C(c2ccc(OCCCO)cc2)O[C@H]1c1ccccc1` is greater than or equal to -0.06.
Out: YES

In: Answer whether composite z-score of C=CC1c2cc(O)c(OC)cc2CCN1Cc1ccc([N+](=O)[O-])o1 (stereo not given) is greater than or equal to -0.06.
Out: YES

In: Answer whether composite z-score of `COC(=O)[C@@]1(Cc2ccc(OC)cc2)[C@H]2c3cc(C(=O)N4CCCC4)n(Cc4ccc(S(C)(=O)=O)cc4)c3C[C@H]2CN1C(=O)c1ccccc1` is greater than or equal to -0.06.
Out: YES

====

- Experiment: small-molecule microarray binders of probe aDKK1, primary screen, biochemical, biotinylated probe, 635/667 nm fluorescence (AID 1099);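 further: score merges 667nm spot fluorescence with signal to noise across triplicate slides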
- Condition Info: higher = more signal
Please mark rule met if the recorded composite z-score is equal to or greater than 0.3, and rule not met if it falls below.

As a guide, the following entries are already answered.
C=CCOC(=O)[C@H]1[C@@H]2C(=O)O[C@@H](c3ccccc3)[C@@H](c3ccccc3)N2[C@@H](c2ccc(OCCOC(=O)[C@H]3C[C@H]4C(=O)N[C@@H](CCCCNC(C)=O)C(=O)N4[C@H]3c3cccc(OCCO)c3)cc2)[C@]12C(=O)Nc1ccc(I)cc12; rule not met
O=C1N(CCS(=O)(=O)c2ccccc2)Cc2ccccc2[C@@H]2OC(c3ccc(OCCCO)cc3)=N[C@]12CCS(=O)(=O)c1ccccc1; rule met
Nc1cc(Br)ccc1C(=O)O; rule not met

In: Answer whether composite z-score of `CN(C)C(=O)[C@@]1(Cc2ccccc2N=[N+]=[N-])N=C(c2ccc(OCCCO)cc2)O[C@H]1c1ccccc1` is greater than or equal to 0.3.
Out: rule met

In: Answer whether composite z-score of CCCCCCCCCCC(O)C1C=CC2C(=O)N(c3ccccc3)C(=O)C2N1Nc1ccccc1F (centres undefined) is greater than or equal to 0.3.
Out: rule not met

In: Answer whether composite z-score of `C=C(CCCC)C(=O)CC[C@H](OC(C)=O)c1ccc(OCCO)cc1` is greater than or equal to 0.3.
Out: rule not met

In: Answer whether composite z-score of `CN1C(=O)[C@@]2(Cc3ccccc3)N=C(c3ccc(OCCCO)cc3)O[C@H]2c2ccccc21` is greater than or equal to 0.3.
Out: rule met

In: Answer whether composite z-score of CN1C(=O)C2C=CC(C(O)c3cc(C(F)(F)F)cc(C(F)(F)F)c3)N(Nc3ccccc3)C2C1=O (centres undefined) is greater than or equal to 0.3.
Out: rule not met

In: Answer whether composite z-score of `C[C@]1(C(=O)O)c2ccccc2C(=O)N(Cc2ccc(OC(F)(F)F)cc2)[C@H]1c1ccc(CO)cc1` is greater than or equal to 0.3.
Out: rule met

In: Answer whether composite z-score of `COCC(=C=CC[C@@H](O)c1cccc(OCCO)c1)CCO` is greater than or equal to 0.3.
Out: rule not met

In: Answer whether composite z-score of `COc1cc(CO)cc(I)c1O[C@H]1C=C(C(=O)NCCO)C[C@@H](NCC2CCCCC2)[C@@H]1O` is greater than or equal to 0.3.
Out: rule not met

In: Answer whether composite z-score of `COc1ccc([Si](C)(C)[C@@H]2[C@@H](CC(=O)N3Cc4ccccc4C[C@H]3CO)O[C@]3(C(=O)N(Cc4ccc(N5CCC5=O)cc4)c4ccccc43)[C@H]2C)cc1` is greater than or equal to 0.3.
Out: rule not met

In: Answer whether composite z-score of COc1ccc(C(O)C2C=CC3C(=O)N(c4ccccc4)C(=O)C3N2Nc2ccc(C(C)C)cc2)c2ccccc12 (centres undefined) is greater than or equal to 0.3.
Out: rule met

In: Answer whether composite z-score of `COCCOC(=O)N1C(=O)[C@@]2(c3cc(C#CCCO)ccc31)[C@H](C(N)=O)[C@H]1C(=O)O[C@H](c3ccccc3)[C@H](c3ccccc3)N1[C@@H]2c1ccc(OCCO)cc1` is greater than or equal to 0.3.
Out: rule not met

In: Answer whether composite z-score of `COCCOC(=O)N1C(=O)[C@@]2(c3cc(C#CCC(C(=O)OC)C(=O)OC)ccc31)[C@H](C(=O)NC[C@H](O)c1ccccc1)[C@H]1C(=O)O[C@H](c3ccccc3)[C@H](c3ccccc3)N1[C@@H]2c1ccc(OCCO)cc1` is greater than or equal to 0.3.
Out: rule not met

In: Answer whether composite z-score of CCOC(=O)C1=CCN(S(=O)(=O)c2ccc(C)cc2)C1c1ccccc1 (centres undefined) is greater than or equal to 0.3.
Out: rule not met

In: Answer whether composite z-score of `[N-]=[N+]=NCc1ccccc1[C@H]1OC(c2ccc(OCCCO)cc2)=N[C@@]1(Cc1ccccc1)C(=O)NCCN1CCOCC1` is greater than or equal to 0.3.
Out: rule not met

In: Answer whether composite z-score of COc1cc(NN2C(C(O)c3cc(OC)c(OC)c(OC)c3)C=CC3C(=O)N(c4ccccc4)C(=O)C32)cc(OC)c1OC (centres undefined) is greater than or equal to 0.3.
Out: rule met

In: Answer whether composite z-score of `COc1ccc(C(=O)Nc2cccc(CN3C(=O)[C@@]4(O[C@@H](CC(=O)N(CCO)Cc5ccccc5)[C@H]([Si](C)(C)c5ccc(OC)cc5)[C@H]4C)c4ccccc43)c2)cc1` is greater than or equal to 0.3.
Out: rule not met

In: Answer whether composite z-score of CS(=O)(=O)CCOC(=O)C1=CC(CCCO)=CC(C2CC2)N(Cc2cccc(OC(F)(F)F)c2)C=C1C(=O)OCCS(C)(=O)=O (centres undefined) is greater than or equal to 0.3.
Out: rule not met

In: Answer whether composite z-score of CC(C)OC(=O)CC(=O)CC(O)c1ccc([N+](=O)[O-])cc1 (centres undefined) is greater than or equal to 0.3.
Out: rule met

In: Answer whether composite z-score of CC(C)[C@H]1NC(=O)[C@@]23C(=O)N[C@@H](Cc4ccccc4)C2[C@H](C)[C@@]2(C)O[C@H]2C3/C=C/CCC/C=C/CNC(=O)[C@H](Cc2ccccc2)NC1=O (some centres undefined) is greater than or equal to 0.3.
Out: rule not met

In: Answer whether composite z-score of `COc1ccc(C#Cc2ccc3c(c2)[C@]2(C(=O)N3)[C@H](C(=O)Nc3nc4ccccc4s3)[C@H]3C(=O)O[C@H](c4ccccc4)[C@H](c4ccccc4)N3[C@@H]2c2ccccc2OCCO)cc1` is greater than or equal to 0.3.
Out: rule not met

In: Answer whether composite z-score of `NC(=O)[C@@H]1[C@H]2C(=O)O[C@H](c3ccccc3)[C@H](c3ccccc3)N2[C@H](c2ccc(OCCO)cc2)[C@@]12C(=O)Nc1ccc(C#CCCO)cc12` is greater than or equal to 0.3.
Out: rule met
